Biological target: IDH1 wild-type (Homo sapiens (Human))
Sequence (O75874 whole entry): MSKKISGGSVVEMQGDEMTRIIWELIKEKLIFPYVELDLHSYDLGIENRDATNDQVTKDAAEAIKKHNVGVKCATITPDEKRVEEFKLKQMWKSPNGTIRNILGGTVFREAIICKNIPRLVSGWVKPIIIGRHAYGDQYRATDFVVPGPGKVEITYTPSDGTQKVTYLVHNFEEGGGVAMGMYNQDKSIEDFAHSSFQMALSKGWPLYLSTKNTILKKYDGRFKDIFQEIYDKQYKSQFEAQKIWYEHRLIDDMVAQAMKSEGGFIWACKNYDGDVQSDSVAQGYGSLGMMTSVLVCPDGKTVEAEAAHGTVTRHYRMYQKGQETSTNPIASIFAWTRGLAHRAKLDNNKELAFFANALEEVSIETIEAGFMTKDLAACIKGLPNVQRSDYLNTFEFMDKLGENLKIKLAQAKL
Assay: Oxidative decarboxylation of isocitrate to α-KG by IDH1 wild-type (340 nm)
Assay type: biochemical
Settings: α-KG product inhibition, competitive with isocitrate; read-out: Ki
TEST READOUT: pKi
Keep it numeric: pKi is minus log10 of the concentration in mol/L.

For the compound shown here, O=C(O)CCC(=O)C(=O)O [α-KG, α-Ketoglutarate] , give the reported pKi. 3.21

----------
Biological target: IDH1 R132H (Homo sapiens (Human), UniProt O75874, R132H)
Sequence (O75874 whole entry R132H): as the sequence (O75874 whole entry) above, with R132H counted along it
Test: Oxidative decarboxylation of isocitrate to α-KG by IDH1 R132H (340 nm)
Format: biochemical
Conditions: IDH1R132H 60 ug/ml, NADP 0.5 mM, DL-isocitrate 5-650 uM; read-out: Oxalomalate Ki
TEST READOUT: Ki
Hey, just the number and the unit after it is fine.

# input compound: O=C(O)C(=O)C(C(=O)O)C(O)C(=O)O (stereo not shown) [Oxalomalate, oxalomalate] ; wanted: its Ki 951 µM
